Recorded stable solution concentration in MCTs, one value per entry.
- Assay Protocol: solubility / solubilization in the MCT carrier oil
- Experimental Context: MCTs (0.0-6.0% C6, 6.0-60% C8, 6.0-60% C10), stirring at 85 degrees Celsius for 5 minutes
Give the number; mg/mL is assumed, so skip it.

Molecule	stable solution concentration in MCTs (mg/mL)
CC(C)=CCC/C(C)=C/C=C/C(C)=C/C=C/C(C)=C/C=C/C=C(C)/C=C/C=C(C)/C=C/C=C(\C)CCC=C(C)C	200

In one line, give reported stable solution concentration in MCTs of the entry CC(=C(CCOC(=O)C(C)C)SSC(CCOC(=O)C(C)C)=C(C)N(C=O)Cc1cnc(C)nc1N)N(C=O)Cc1cnc(C)nc1N (stereo in doubt) [sulbutiamine, reference compound] .
200

Give the reported stable solution concentration in MCTs for this molecule. `CC1=C[C@H](O)CC(C)(C)[C@H]1/C=C/C(C)=C/C=C/C(C)=C/C=C/C=C(C)/C=C/C=C(C)/C=C/C1=C(C)C[C@@H](O)CC1(C)C`
200

Fill in stable solution concentration in MCTs for record CCCCCCCCCCCCCCCC(=O)OC[C@H](O)[C@H]1OC(=O)C(O)=C1O [ascorbyl palmitate]
200
